assay: chemical genetic growth profiling, strain panel (AID 1159580);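 further: tested at 20 µM; growth read once vehicle control cultures reached saturation at 30 °C; lower values mean less growth of the strain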; conditions: S. cerevisiae deletion strains, growth OD, locus YLR320W, strain mms22, stronger effect = lower value
The campaign covered roughly 5,500 compounds. About 2,000 (36%) were called active. Roughly 18% stayed inconclusive and do not appear here. This is one part of the list.
Threshold 1. normalized growth below it: Fulfilled. normalized growth at it or above: Not fulfilled.

| Molecule | Category |
| --- | --- |
| CC(C)(C)C(=O)C(Oc1ccc(Cl)cc1)n1cncn1 (stereo unspecified) | Fulfilled |
| CC1(C)O[C@@H]2CC3C4CCC5=CC(=O)C=C[C@]5(C)[C@@]4(F)[C@@H](O)C[C@]3(C)[C@]2(C(=O)CO)O1 (stereo partly specified) | Fulfilled |
| C[n+]1cc2c3c(ccc2c2ccc4cc5c(cc4c21)OCO5)OCO3 | Fulfilled |
| CC(=O)N(O)CCCCCNC(=O)CCC(=O)N(O)CCCCCNC(=O)CCC(=O)N(O)CCCCCN | Not fulfilled |
| CC(=O)O[C@@H]1CC2C(C)(C)C(=O)CC[C@]2(C)C2CC[C@@]3(C)[C@H](c4ccoc4)OC(=O)C4OC43[C@@]21C (stereo partly specified) | Fulfilled |
| O=c1[nH]c2cc(Cl)c(Cl)cc2[nH]c1=O | Fulfilled |
| CN(C)C(=O)Oc1cc(OC(=O)N(C)C)cc(C(O)CNC(C)(C)C)c1 (stereo unspecified) | Not fulfilled |
| COc1c(O)cccc1O | Not fulfilled |
| COc1ccc(-c2coc3cc(OC(C)=O)cc(OC(C)=O)c3c2=O)cc1 | Fulfilled |
| S=c1ccss1 | Fulfilled |
| COc1ccc(-c2cc(=O)c3ccccc3o2)cc1 | Fulfilled |
| CC(C)Oc1ccc2c(=O)cc(-c3ccccc3)oc2c1 | Fulfilled |
| O=C1CC[C@]23C=CC(=O)NCCCCNCCCNC(=O)/C=C/c4ccc(c2c4)O[C@@H]3C1 | Not fulfilled |
| CC(C(=O)O)[C@H]1CCC2C3CC=C4C[C@@H](O)CC[C@]4(C)C3CC[C@@]21C (stereo partly specified) | Fulfilled |
| CC1=CCc2c(cc3oc(C)cc(=O)c3c2O)OC1 | Fulfilled |
| Cn1nnnc1SCC1=C(C(=O)O)N2C(=O)C(NC(=O)C(O)c3ccccc3)C2SC1 (stereo unspecified) | Fulfilled |
| NC(=O)CC[C@@H](N)C(=O)O | Not fulfilled |
| Cc1cc2cc3c(C)cc(=O)oc3c(C)c2o1 | Fulfilled |
| CCN1CCN(c2cc3c(cc2F)c(=O)c(C(=O)O)cn3C2CC2)CC1 | Fulfilled |
| CC1=NCCc2c1[nH]c1cc(O)ccc21 | Not fulfilled |
| Nc1ccc(C(=O)Oc2ccccc2)c(O)c1 | Fulfilled |
| COc1c2c(cc3c1OCO3)CC[N+](C)=C2 | Not fulfilled |
| CC(=O)OCC(=O)[C@@]1(O)CCC2C3CC[C@@H]4C[C@H](O)CC[C@]4(C)C3C(=O)C[C@@]21C (stereo partly specified) | Not fulfilled |

meta.source: PubChem BioAssay AID1159580
